pIC50: −log10 of the molar value.
Record: compiled pIC50 on NAMPT (Homo sapiens) from multiple reports.
OBSERVABLE: pIC50

O=CN1CCN(CC(=O)N(Cc2ccc(F)cc2)c2ncc(C(=O)NCCCn3ccnc3)s2)CC1
8.88

P: O=C(NCc1ccn2ccnc2c1)Nc1ccc(C2CN(C(=O)[C@H]3CCCO3)C2)cc1
Q: CC(C)CCN(C(=O)[C@H](C)Oc1ccccc1)c1ncc(C(=O)NCCCn2ccnc2)s1
Smaller pIC50 value, P vs Q ? Answer with the label corresponding to your selection. Q
(Q: 9.21, P: 9.42)

a: O=C(NCc1ccn2ccnc2c1)c1ccc(C2CN(C(=O)c3ccccc3F)C2)cc1
b: CC(C)(C)CC(=O)N1CCC(c2ccc(NC(=O)C3CN(c4ccnnc4)C3)cc2)CC1
c: CN(CC1(CO)CCCC1)C(=O)CCCCCCCN/C(=N\C#N)Nc1ccncc1
d: O=C(CC1CCOC1)Nc1ccc(C(=O)NCc2ccc3nccn3c2)cc1 (centres unmarked)
Output the entries ranked by pIC50 from maximum down to minimum. A complete answer lists every label in the requested sequence. a, d, b, c
(a: 9.26, d: 8.62, b: 8.05, c: 7.77)

* * *

Record: compiled IC50 on NAMPT (Homo sapiens, UniProt P43490) from multiple reports.
Sequence (P43490 whole entry): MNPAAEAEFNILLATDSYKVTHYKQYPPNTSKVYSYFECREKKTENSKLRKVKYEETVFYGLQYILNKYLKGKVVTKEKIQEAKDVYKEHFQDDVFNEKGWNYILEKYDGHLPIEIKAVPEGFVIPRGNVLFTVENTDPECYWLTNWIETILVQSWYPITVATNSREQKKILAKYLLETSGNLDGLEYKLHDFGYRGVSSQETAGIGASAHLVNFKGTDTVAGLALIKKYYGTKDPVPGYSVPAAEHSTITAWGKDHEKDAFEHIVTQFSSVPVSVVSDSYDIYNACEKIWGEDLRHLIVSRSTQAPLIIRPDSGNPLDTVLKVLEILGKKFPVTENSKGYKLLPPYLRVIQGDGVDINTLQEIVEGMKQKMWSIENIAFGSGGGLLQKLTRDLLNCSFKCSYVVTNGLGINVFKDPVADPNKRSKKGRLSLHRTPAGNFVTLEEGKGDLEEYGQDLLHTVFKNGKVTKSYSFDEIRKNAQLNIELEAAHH
OBSERVABLE: IC50 (nM)

Example results:
CCCC(C)CN1CCC(c2ccc(NC(=O)C3CN(c4cccnc4)C3)cc2)CC1 (centres unmarked)
0.902
O=C(NCc1ccn2ccnc2c1)c1ccc(C2CCN(C(=O)[C@H]3CCOC3)CC2)cc1
0.169
O=C(Nc1ccc(OC2CCN(C(=O)CC3CCCCC3)CC2)cc1)C1CN(c2cccnc2)C1
1.1
O=C(NCc1ccn2ccnc2c1)c1ccc(C2CCN(C(=O)CCC(F)(F)F)CC2)s1
0.505
Cc1ccsc1C(=O)N1CCC(c2ccc(NC(=O)C3CN(c4cccnc4C)C3)cc2)CC1
37.9
O=C(CC1CCCC1)Nc1ccc(NC(=O)NCc2cn3ccnc3cn2)cc1
2

a: O=C(NCc1ccn2ccnc2c1)Nc1ccc(C2CCN(C(=O)c3ccccc3F)CC2)cc1
b: COCCC(=O)N(CCC(C)C)c1ncc(C(=O)NCCCn2ccnc2)s1
Choose between a and b : whose measured IC50 value is numerically larger? Answer with the label corresponding to your selection. a

* * *

Record: compiled pIC50 on NAMPT (Homo sapiens, UniProt P43490) from multiple reports.
pIC50: −log10 of the molar value.
OBSERVABLE: pIC50

Example results:
CC(C)(CNC(=O)N(Cc1ccc(C#N)cc1)c1ncc(C(=O)NCCCn2ccnc2)s1)C(=O)O
6.58
O=C(NCc1ccn2ccnc2c1)Nc1ccc(O[C@@H]2CCN(C(=O)c3cccc(F)c3)C2)cc1
8.91
O=C(NCc1ccn2ccnc2c1)c1ccc(C2CN(C(=O)c3ccncc3)C2)cc1
9.12
O=C(NCc1ccn2ccnc2c1)c1cnc(N2C(=O)CC[C@H]2CO)s1
8.77
Cc1noc(C)c1CCC(=O)N(CC1CCCO1)c1ncc(C(=O)NCc2ccc3nccn3c2)s1 (stereo not drawn)
9.20
O=C(Nc1ccc(OC2CCN(C(=O)CN3CCOCC3)CC2)cc1)C1CN(c2cccnc2)C1
9.00
O=C(NCc1ccn2ccnc2c1)c1ccc(C2CN(C(=O)CC3CCCCC3)C2)cc1
9.23
CC(C)S(=O)(=O)N1CCC(c2ccc(C(=O)NCc3cn4ccnc4cn3)cc2)CC1
8.80

I: O=C(NCc1ccn2ccnc2c1)c1ccc(C2CCN(C(=O)c3ccncc3)C2)cc1 (stereo not drawn)
II: O=C(CN1CCOCC1)Nc1ccc(NC(=O)Nc2ccc3nccn3c2)cc1
Smaller pIC50 value, I vs II ? Answer with the label corresponding to your selection. II
(II: 8.94, I: 9.29)

A: O=C(NCc1ccn2ccnc2c1)Nc1ccc(OC2CCN(C(=O)c3cccc(F)c3)CC2)cc1
B: CC/C=C(\C)C(=O)N1CCC(c2ccc(C(=O)NCc3ccn4ccnc4c3)s2)C1 (stereo not drawn)
Smaller pIC50 value, A vs B ? Answer with the label corresponding to your selection. B

* * *

Record: compiled pIC50 on NAMPT (Homo sapiens) from multiple reports.
pIC50: −log10 of the molar value.
OBSERVABLE: pIC50

Example results:
O=C(Nc1ccc(OC2CCN(C(=O)c3ccc(F)cc3F)CC2)cc1)C1CN(c2cccnn2)C1
9.23
O=C(NCc1ccn2ccnc2c1)c1ccc(C2CN(C(=O)c3ccccc3)C2)cc1
9.65

P: CC(C)CCN(C(=O)CC1CCOC1)c1ncc(C(=O)NCCCn2ccnc2)s1 (stereo not shown)
Q: O=C(NCc1ccn2ccnc2c1)c1ccc(C2CCN(C(=O)C3CCOCC3)C2)cc1 (stereo not shown)
R: COCCN(C)C(=O)N(Cc1ccc(F)cc1)c1ncc(C(=O)NCCCn2ccnc2)s1
S: O=C(Nc1ccc(OC2CCN(C(=O)Cc3cccc(C(F)(F)F)c3)CC2)cc1)C1CN(c2ccnnc2)C1
Give the ascending ranking of the items by reported pIC50. A complete answer lists every label in the requested sequence. S, R, P, Q

A: O=C(Nc1ccc(C(=O)NCCN2CCCC2=O)cc1)Nc1ccc2nccn2c1
B: CN1CCN(CC(=O)N2CCC(c3ccc(NC(=O)C4CN(c5cccnc5)C4)cc3)CC2)CC1
Choose between A and B : whose measured pIC50 value is numerically larger? Answer with the label corresponding to your selection. B
(B: 9.60, A: 9.08)

A: CC(C)(O)CC(=O)N1CC[C@H](Oc2ccc(C(=O)NCc3ccn4ccnc4c3)cc2)C1
B: CC(C)(O)C(=O)N1CCC(Oc2ccc(C(=O)NCc3ccn4ccnc4c3)cc2)CC1
Choose between A and B : whose measured pIC50 value is numerically larger? Answer with the label corresponding to your selection. B

* * *

Record: compiled pIC50 on NAMPT (Homo sapiens, UniProt P43490) from multiple reports.
pIC50: −log10 of the molar value.
OBSERVABLE: pIC50

Example results:
CC(C)CCN1CCC(Oc2ccc(NC(=O)C3CN(c4cccnc4)C3)cc2)CC1
9.08
O=C(NCCCCC1CCN(C(=O)C2CCCC2)CC1)Nc1ccc2nccn2c1
9.32
O=C(Nc1ccc(OC2CCN(C(=O)c3cc(F)cc(F)c3)CC2)cc1)C1CN(c2cccnn2)C1
9.01

P: O=C(NCc1ccn2ccnc2c1)c1ccc(C2CN(S(=O)(=O)C3CC3)C2)cc1
Q: COCCC(=O)N(Cc1ncccn1)c1ncc(C(=O)NCCCn2ccnc2)s1
Smaller pIC50 value, P vs Q ? Answer with the label corresponding to your selection. Q

* * *

Record: compiled pIC50 on NAMPT (Homo sapiens, UniProt P43490) from multiple reports.
pIC50: −log10 of the molar value.
OBSERVABLE: pIC50

Example results:
O=C(NCc1ccn2ccnc2c1)c1ccc(C2CCN(C(=O)c3ccccc3F)CC2)cc1
9.73
O=C(NCc1ccn2ccnc2c1)Nc1ccc(OC2CCN(C(=O)CC3CC3)CC2)cc1
9.61
CC(C)(C)OC(=O)N1CCC(Oc2ccc(NC(=O)[C@H]3CCN(c4cccnc4)C3)cc2)CC1
8.28
O=C(Nc1ccc(C2CCN(CC3CCCCC3)CC2)cc1)C1CN(c2cccnc2)C1
9.08
O=C(NCc1ccn2ccnc2c1)c1ccc(-c2cnn(CC3CCCOC3)c2)o1 (stereo not drawn)
9.61

I: COc1ccc(CN(CCC2(C(C)C)CCOC(C)(C)C2)C(=O)c2cnc[nH]2)cc1 (stereo not drawn)
II: O=C(NCc1ccn2ccnc2c1)c1ccc(C2CCN(C(=O)Cc3cccc(F)c3)C2)s1 (stereo not drawn)
III: CC(C)C(=O)N1CCC(Oc2ccc(C(=O)NCc3ccc4nccn4c3)cc2)CC1
IV: CC(C)(C)OC(=O)N1CCC(c2ccc(NC(=O)NCc3ccn4ccnc4c3)cc2)CC1
Output the entries ranked by pIC50 from maximum down to minimum. A complete answer lists every label in the requested sequence. IV, II, III, I
(IV: 9.72, II: 9.40, III: 8.67, I: 5.27)

* * *

Record: compiled pIC50 on NAMPT (Homo sapiens) from multiple reports.
pIC50: −log10 of the molar value.
OBSERVABLE: pIC50

Example results:
COCCC(=O)N(Cc1ccccc1C)c1ncc(C(=O)NCCCn2ccnc2)s1
8.72
CC(C)CCN(C(=O)COc1ccccc1)c1ncc(C(=O)NCCCn2ccnc2)s1
9.76

I: O=C(NCc1ccn2ccnc2c1)c1ccc(C2CN(C(=O)c3nccs3)C2)cc1
II: CC1Cc2ccccc2N1C(=O)CCCCCNC(=O)/C=C/c1cccnc1 (stereo not shown)
Choose between I and II : whose measured pIC50 value is numerically larger? Answer with the label corresponding to your selection. I

P: CC(O)CNC(=O)N(Cc1ccc(C#N)cc1)c1ncc(C(=O)NCCCn2ccnc2)s1 (stereo not shown)
Q: O=C(NCCCn1ccnc1)c1cnc(N(Cc2ccc(F)cc2)C(=O)c2ccc(F)cc2)s1
R: CC(C)Cn1cc(-c2ccc(C(=O)NCc3ccn4ccnc4c3)s2)cn1
S: O=C(CC1CCOC1)Nc1ccc(C(=O)NCc2ccn3ccnc3c2)cc1 (stereo not shown)
T: O=C(CC1CCCC1)Nc1ccc(C(=O)NCc2ccn3ncnc3c2)cc1
Output the entries ranked by pIC50 from maximum down to minimum. A complete answer lists every label in the requested sequence. R, Q, P, S, T

1: O=C(NCc1ccn2ccnc2c1)c1ccc(-c2cnn(CC3CCCOC3)c2)s1 (stereo not shown)
2: O=C(NCc1ccn2ccnc2c1)c1ccc(C2CCN(C(=O)Cc3ccccc3)C2)cc1 (stereo not shown)
3: O=C(NCc1ccn2ccnc2c1)c1ccc(O[C@H]2CCN(C(=O)[C@H]3CCCO3)C2)cc1
4: O=C(NCCCn1ccnc1)c1cnc(N(Cc2ccc(F)cc2)C(=O)N2CC(O)C2)s1
Give the ascending ranking of the items by reported pIC50. A complete answer lists every label in the requested sequence. 4, 3, 2, 1

A: Cn1cc(-c2ccc(C(=O)NCc3ccn4ccnc4c3)s2)cn1
B: O=C(Nc1ccc(C2CCN(C(=O)CC[N+](=O)[O-])CC2)cc1)C1CN(c2cccnn2)C1
Smaller pIC50 value, A vs B ? Answer with the label corresponding to your selection. B
(B: 9.31, A: 9.57)
